CONDITION_CONTEXT: in water, 318.15 K
RECORDED_ENDPOINT: solubility (mole fraction)
I'd appreciate a reply containing only the number, no unit.

Query: Returns the measured solubility (mole fraction) for the input compound. Input: `O=[N+]([O-])c1cn[nH]c1[N+](=O)[O-]`
Reply: 0.0136

* * *

CONDITION_CONTEXT: in acetonitrile, 303.15 K
RECORDED_ENDPOINT: solubility (mole fraction)
Write no unit; give the number alone.

Query: Item under review: `O=[N+]([O-])c1cn[nH]c1[N+](=O)[O-]` . Reported solubility (mole fraction)?
Reply: 0.0968

* * *

CONDITION_CONTEXT: in chloroform, 283.15 K
RECORDED_ENDPOINT: solubility (mole fraction)
Give a plain numeric answer without units written out.

Query: I would be grateful if you could share the reported solubility (mole fraction) for `O=[N+]([O-])c1cn[nH]c1[N+](=O)[O-]` .
Reply: 0.00071

* * *

CONDITION_CONTEXT: in n-propanol, 308.15 K
RECORDED_ENDPOINT: solubility (mole fraction)

Query: Look up solubility (mole fraction) for this compound: `O=[N+]([O-])c1cn[nH]c1[N+](=O)[O-]`
Reply: 0.567

* * *

CONDITION_CONTEXT: in water, 323.15 K
RECORDED_ENDPOINT: solubility (mole fraction)
Answer as a number with no unit attached.

Query: Query (compound): `O=[N+]([O-])c1cn[nH]c1[N+](=O)[O-]` ; field requested: solubility (mole fraction)
Reply: 0.0169

* * *

CONDITION_CONTEXT: in n-propanol, 303.15 K
RECORDED_ENDPOINT: solubility (mole fraction)

Query: So what does the record say about solubility (mole fraction) for `O=[N+]([O-])c1cn[nH]c1[N+](=O)[O-]` ?
Reply: 0.516

* * *

CONDITION_CONTEXT: in water, 293.15 K
RECORDED_ENDPOINT: solubility (mole fraction)
Just the number, please.

Query: What does the record list as solubility (mole fraction) for `O=[N+]([O-])c1cn[nH]c1[N+](=O)[O-]` ?
Reply: 0.00414

* * *

CONDITION_CONTEXT: in 2-butanone, 313.15 K
RECORDED_ENDPOINT: solubility (mole fraction)
Answer using only a numeral; do not append any unit.

Query: Fill in: solubility (mole fraction) of `O=[N+]([O-])c1cn[nH]c1[N+](=O)[O-]` is ___
Reply: 0.578

* * *

CONDITION_CONTEXT: in water, 303.15 K
RECORDED_ENDPOINT: solubility (mole fraction)
Could you keep your reply to the number by itself?

Query: # input compound: `O=[N+]([O-])c1cn[nH]c1[N+](=O)[O-]` ; wanted: its solubility (mole fraction)
Reply: 0.00738

* * *

CONDITION_CONTEXT: in chloroform, 323.15 K
RECORDED_ENDPOINT: solubility (mole fraction)
The response must contain the number and no unit.

Query: So what does the record say about solubility (mole fraction) for `O=[N+]([O-])c1cn[nH]c1[N+](=O)[O-]` ?
Reply: 0.00693

* * *

CONDITION_CONTEXT: in isobutanol, 283.15 K
RECORDED_ENDPOINT: solubility (mole fraction)
Provide a numeric answer; units are not to be included.

Query: Returns the measured solubility (mole fraction) for the input compound. Input: `O=[N+]([O-])c1cn[nH]c1[N+](=O)[O-]`
Reply: 0.234

* * *

CONDITION_CONTEXT: in ethyl acetate, 308.15 K
RECORDED_ENDPOINT: solubility (mole fraction)
Write the number on its own, no unit after it.

Query: What does the data say about its solubility (mole fraction)? Entry: `O=[N+]([O-])c1cn[nH]c1[N+](=O)[O-]`
Reply: 0.146

Measured values drawn from BigSolDB 2.1 for this set.
